These data points were gathered from paper PMC5019375.

target: cIAP2-BIR2 (Homo sapiens, UniProt Q13489); experiment: FP competition assay, displacement of SMAC-rhodamine
Sequence (Q13489 129-246): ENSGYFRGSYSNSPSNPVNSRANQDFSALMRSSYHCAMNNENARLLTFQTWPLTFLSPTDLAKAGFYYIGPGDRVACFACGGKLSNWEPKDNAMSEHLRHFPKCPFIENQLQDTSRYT
# strict inequality: Ki < 10 µM yields Satisfied, everything else yields Not satisfied

Past entries and their recorded results:
# COMPOUND, GROUP_LABEL
records = [
    ("CN[C@@H](C)C(=O)N[C@H](C(=O)N[C@@H](CCCN)C(=O)NNc1ccccc1)C(C)C [compound 32]", "Not satisfied"),
    ("CC(C)[C@H](NC(=O)[C@H](C)N)C(=O)N[C@@H](CCCNC(=O)OCc1ccccc1)C(=O)Nc1cccc2ccccc12 [compound 21]", "Satisfied"),
    ("CN[C@@H](C)C(=O)N[C@@H](CCC(=O)O)C(=O)N[C@@H](C)C(=O)NNc1ccccc1 [compound 29]", "Not satisfied"),
    ("CN[C@@H](C)C(=O)N[C@H](C(=O)N[C@@H](CCCNC(N)=N[N+](=O)[O-])C(=O)N[C@@H]1CCCc2ccccc21)C(C)C [compound 9]", "Satisfied"),
    ("CN[C@@H](C)C(=O)N[C@H](C(=O)N[C@@H](C)C(=O)Nc1cccc2ccccc12)C(C)C [compound 15]", "Not satisfied"),
]

IN: Strictly below 10 µM: is that where Ki of CN[C@@H](C)C(=O)N[C@H](C(=O)N[C@@H](CCCCNC(=O)OCc1ccccc1)C(=O)N[C@@H]1CCCc2ccccc21)C(C)C [compound 12] sits?
OUT: Satisfied

IN: Strictly below 10 µM: is that where Ki of CN[C@@H](C)C(=O)N[C@H](C(=O)N[C@@H](CCCCN)C(=O)NNc1ccccc1)C(C)C [compound 35] sits?
OUT: Satisfied

IN: Strictly below 10 µM: is that where Ki of CN[C@@H](C)C(=O)N[C@H](C(=O)N[C@@H](CCCN=C(N)N)C(=O)NNc1ccccc1)C(C)C [compound 28] sits?
OUT: Not satisfied

IN: Strictly below 10 µM: is that where Ki of CN[C@@H](C)C(=O)N[C@H](C(=O)N[C@@H](CCCN)C(=O)N[C@@H]1CCCc2ccccc21)C(C)C [compound 13] sits?
OUT: Satisfied

====

molecular target: cIAP2-BIR3 (Homo sapiens); assay: FP competition assay, displacement of SMAC-rhodamine
Sequence (Q13489 243-333): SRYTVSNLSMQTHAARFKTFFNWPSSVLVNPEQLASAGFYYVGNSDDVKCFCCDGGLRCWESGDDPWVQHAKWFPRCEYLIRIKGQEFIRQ
No end group written: not given here.
MEASUREMENT_LABEL: Ki (nM)
Please reply with the bare figure in nM and do not write the unit itself.

Lookup result for AVPIAQK-NH2 [SMAC-7-mer, AVPIAQK, reference compound] ; measured Ki: 420

====

target: cIAP1-BIR3 (Homo sapiens, UniProt Q13490); experiment: FP competition assay, displacement of SMAC-rhodamine; conditions: cIAP1 BIR3 Ki, 25 mM Hepes pH 7.5, 1 mM TCEP, 0.005% Tween 20, 20 nM SMAC-rhodamine, 40 mM β-glycerol phosphate, ~50 nM protein; Ki calculated from IC50
Sequence (Q13490 257-356): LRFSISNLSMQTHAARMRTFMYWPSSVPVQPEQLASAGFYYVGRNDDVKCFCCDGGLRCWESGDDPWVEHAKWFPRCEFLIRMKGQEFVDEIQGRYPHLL
Each entry below lists one item and its recorded pKi value.
// field semantics: pKi = negative decimal log of concentration (mol/L)

Example compounds with recorded pKi:
# SAMPLE_SMILES, pKi
data = [
    ("CN[C@@H](C)C(=O)N[C@@H](CCC(N)=O)C(=O)N1CCC[C@H]1C(=O)N[C@@H]1CCCc2ccccc21", 7.10),
    ("CN[C@@H](C)C(=O)N[C@H](C(=O)N[C@@H](CCC(N)=O)C(=O)N[C@@H]1CCCc2ccccc21)C(C)C", 6.14),
    ("CN[C@@H](C)C(=O)N[C@H](C(=O)N[C@@H](CCCN)C(=O)N[C@@H]1CCCc2ccccc21)C(C)C", 7.05),
]

Lookup result for CN[C@@H](C)C(=O)N[C@H](C(=O)N1CCC[C@H]1C(=O)Nc1ccc2ccccc2n1)C(C)C ; measured pKi: 7.10

Lookup result for CN[C@@H](C)C(=O)N[C@@H](CC(=O)OC)C(=O)N1CCC[C@H]1C(=O)N[C@@H]1CCCc2ccccc21 ; measured pKi: 7.10
